- target.or.system: CDK2/CycE (Homo sapiens)
- Construct: GST; purchased ProQinase GmbH (Freiburg, Germany); host or cells: insect cells (Sf9)
- test: CDK2/CycE high ATP kinase assay (Method 2b, TR-FRET, 2 mM ATP)
- Assay type: biochemical
pIC50: −log10 of the molar value.
reported.metric: pIC50

CS(=O)(=O)Cc1ccnc(Nc2cc(-c3ccc(F)c4ccoc34)c(F)cn2)c1
6.27
CS(=O)(=O)Cc1cc(F)nc(Nc2cc(-c3ccc(F)c4ccoc34)c(F)cn2)c1
6.29

###

- target.or.system: CDK9/CycT1 (Homo sapiens)
- Construct: Recombinant full-length His-tagged human CDK9 and CycT1; His; purchased Invitrogen PV4131; host or cells: insect cells
- Sequence (P50750 whole entry): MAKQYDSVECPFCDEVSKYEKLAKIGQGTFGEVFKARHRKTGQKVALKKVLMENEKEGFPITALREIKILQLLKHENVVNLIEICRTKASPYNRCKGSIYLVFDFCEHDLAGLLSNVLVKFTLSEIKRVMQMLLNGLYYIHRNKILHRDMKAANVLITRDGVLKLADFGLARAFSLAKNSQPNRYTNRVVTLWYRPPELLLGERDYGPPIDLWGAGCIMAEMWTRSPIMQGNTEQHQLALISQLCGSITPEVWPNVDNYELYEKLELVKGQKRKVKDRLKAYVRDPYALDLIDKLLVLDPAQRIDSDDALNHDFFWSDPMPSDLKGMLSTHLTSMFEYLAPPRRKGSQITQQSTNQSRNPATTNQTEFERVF
- Sequence (O60563 whole entry partner): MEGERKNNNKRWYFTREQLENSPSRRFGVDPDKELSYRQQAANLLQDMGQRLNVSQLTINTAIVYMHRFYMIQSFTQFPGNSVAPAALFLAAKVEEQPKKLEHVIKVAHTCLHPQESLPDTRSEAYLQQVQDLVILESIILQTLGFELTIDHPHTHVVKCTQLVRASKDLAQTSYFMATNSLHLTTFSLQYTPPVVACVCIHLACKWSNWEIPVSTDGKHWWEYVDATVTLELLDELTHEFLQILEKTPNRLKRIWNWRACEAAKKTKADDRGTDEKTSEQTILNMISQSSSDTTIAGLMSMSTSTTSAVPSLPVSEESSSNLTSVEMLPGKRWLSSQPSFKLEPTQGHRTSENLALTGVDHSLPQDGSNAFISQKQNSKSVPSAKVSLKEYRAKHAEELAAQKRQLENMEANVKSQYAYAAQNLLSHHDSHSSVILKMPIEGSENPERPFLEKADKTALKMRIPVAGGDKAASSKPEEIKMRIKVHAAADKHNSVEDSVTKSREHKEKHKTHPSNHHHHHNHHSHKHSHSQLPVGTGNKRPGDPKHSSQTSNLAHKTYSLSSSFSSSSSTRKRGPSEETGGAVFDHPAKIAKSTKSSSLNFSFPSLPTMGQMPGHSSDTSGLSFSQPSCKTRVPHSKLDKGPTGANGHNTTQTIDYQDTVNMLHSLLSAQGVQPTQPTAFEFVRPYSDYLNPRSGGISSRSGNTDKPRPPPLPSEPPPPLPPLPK
- test: CDK9/CycT1 kinase assay (Method 1a, TR-FRET, 10 μM ATP)
- Type: biochemical
- condition.details: Method 1a, 10 μM ATP
pIC50: −log10 of the molar value.
reported.metric: pIC50

CS(=O)(=O)Cc1cc(F)nc(Nc2cc(-c3ccc(F)c4ccoc34)c(F)cn2)c1
8.40
CS(=O)(=O)Cc1ccnc(Nc2cc(-c3cccc4ccoc34)c(F)cn2)c1
8.40
CS(=O)(=O)Cc1ccnc(Nc2cc(-c3ccc(F)c4ccoc34)c(F)cn2)c1
8.52
